- TESTED SYSTEM: MAPK14 (p38 alpha) (Homo sapiens)
- Sequence (Q16539 2-360): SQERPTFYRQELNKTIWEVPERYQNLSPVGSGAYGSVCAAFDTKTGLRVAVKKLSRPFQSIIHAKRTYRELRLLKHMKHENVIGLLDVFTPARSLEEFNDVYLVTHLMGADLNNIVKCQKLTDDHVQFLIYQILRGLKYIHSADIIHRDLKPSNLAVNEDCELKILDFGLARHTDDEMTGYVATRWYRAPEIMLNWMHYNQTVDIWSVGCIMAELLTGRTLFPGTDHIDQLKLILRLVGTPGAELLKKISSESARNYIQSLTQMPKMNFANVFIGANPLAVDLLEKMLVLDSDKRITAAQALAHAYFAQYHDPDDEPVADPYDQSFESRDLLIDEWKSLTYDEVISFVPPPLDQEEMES
METRIC NAME: IC50

INSERT INTO results (compound, val) VALUES
  ('C=C1C(=O)OC2C1C(OC(C)=O)C/C(C)=C/CC(OC(C)=O)/C(C)=C/CC(OC(C)=O)C1(C)OC21 (stereo not shown) [crassolide]', '~5.15 µM');
